Target: CSF1R (Homo sapiens, UniProt P07333)
Construct: purchased DiscoverX (KinomeScan service)
Sequence (P07333 20-972): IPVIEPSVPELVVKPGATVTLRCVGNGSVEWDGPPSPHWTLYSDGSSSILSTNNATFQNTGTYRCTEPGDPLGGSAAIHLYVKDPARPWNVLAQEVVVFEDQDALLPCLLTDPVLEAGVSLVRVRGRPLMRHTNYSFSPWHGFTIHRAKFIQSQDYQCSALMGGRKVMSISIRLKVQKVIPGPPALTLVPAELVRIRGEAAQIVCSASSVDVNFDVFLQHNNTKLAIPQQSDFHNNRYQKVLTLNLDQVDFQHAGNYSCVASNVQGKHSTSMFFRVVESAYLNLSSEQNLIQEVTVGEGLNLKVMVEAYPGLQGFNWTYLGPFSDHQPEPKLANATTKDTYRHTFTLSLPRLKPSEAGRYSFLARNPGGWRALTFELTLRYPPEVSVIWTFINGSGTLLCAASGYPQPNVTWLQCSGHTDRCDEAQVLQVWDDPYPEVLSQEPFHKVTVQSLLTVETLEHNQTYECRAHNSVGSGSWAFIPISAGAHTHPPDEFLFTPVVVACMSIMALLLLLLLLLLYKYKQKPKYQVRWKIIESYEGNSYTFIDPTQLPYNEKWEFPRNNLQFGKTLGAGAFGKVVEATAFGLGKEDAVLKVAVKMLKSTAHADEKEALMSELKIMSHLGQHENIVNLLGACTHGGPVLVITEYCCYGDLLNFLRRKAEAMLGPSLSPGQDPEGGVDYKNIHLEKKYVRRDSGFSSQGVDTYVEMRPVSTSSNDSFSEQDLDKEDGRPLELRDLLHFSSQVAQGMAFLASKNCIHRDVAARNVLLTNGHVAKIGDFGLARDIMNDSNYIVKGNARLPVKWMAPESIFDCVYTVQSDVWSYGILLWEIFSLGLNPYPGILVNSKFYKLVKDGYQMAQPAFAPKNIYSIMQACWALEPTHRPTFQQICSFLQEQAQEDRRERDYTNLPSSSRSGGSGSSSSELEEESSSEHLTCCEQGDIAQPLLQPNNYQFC
Assay: KinomeScan Kd determination, CSF1R
Assay type: binding
Conditions: KinomeScan; read-out: Kd (nM) CSF1R
Assign Kd to each entry below.
// units = nM; emit number, no label

Lab note: record Kd of "O=C(Nc1ccccc1)Nc1ccc(Nc2cc(-c3ccccc3)ncn2)cc1" tested on CSF1R (Homo sapiens, UniProt P07333).
2900

Lab note: record Kd of "O=C(CN1CCOCC1)Nc1cccc(-c2cc(Nc3ccc(NC(=O)Nc4ccccc4)cc3)ncn2)c1" tested on CSF1R (Homo sapiens, UniProt P07333).
1100

----------
Tested on: A549 cells
Experiment: MTT cytotoxicity assay, A549 lung cancer cells
Type: cell-based, human
Conditions: Homo sapiens, A549, 72 h, MTT test, 72 h of drug treatment; read-out: A549 IC50 (μM) ± SD
Lab note: anything with IC50 below 10 µM is marked TRUE; values at 10 µM or higher are marked FALSE.

Hello, is IC50 of the following molecule strictly smaller than 10 µM? "Oc1ccc(Nc2cc(Nc3ccccc3)ncn2)cc1"
FALSE

Hello, is IC50 of the following molecule strictly smaller than 10 µM? "Brc1cccc(Nc2cc(Nc3cccc(Br)c3)ncn2)c1"
FALSE

Hello, is IC50 of the following molecule strictly smaller than 10 µM? "Cc1cccc(Nc2cc(Nc3ccccc3)ncn2)c1"
TRUE

Hello, is IC50 of the following molecule strictly smaller than 10 µM? "Oc1ccc(Nc2ncncc2-c2ccccc2)cc1"
FALSE

Hello, is IC50 of the following molecule strictly smaller than 10 µM? "O=C(CN1CCOCC1)Nc1cccc(-c2cc(Nc3ccc(NC(=O)Nc4ccccc4)cc3)ncn2)c1"
TRUE

Hello, is IC50 of the following molecule strictly smaller than 10 µM? "O=C(Nc1ccccc1)Nc1ccc(Nc2ncncc2-c2ccccc2)cc1"
FALSE

Hello, is IC50 of the following molecule strictly smaller than 10 µM? "Nc1ccc(Nc2cc(Nc3ccccc3)ncn2)cc1"
FALSE

Hello, is IC50 of the following molecule strictly smaller than 10 µM? "Oc1cccc(Nc2cc(Nc3ccccc3)ncn2)c1"
FALSE

Hello, is IC50 of the following molecule strictly smaller than 10 µM? "O=C(Nc1ccccc1)Nc1ccc(Nc2cc(-c3ccccc3)ncn2)cc1"
TRUE

Hello, is IC50 of the following molecule strictly smaller than 10 µM? CCN(CC)CCNC(=O)c1c(C)[nH]c(/C=C2\C(=O)Nc3ccc(F)cc32)c1C [SU, sunitinib, reference compound]
TRUE

Hello, is IC50 of the following molecule strictly smaller than 10 µM? "c1ccc(Nc2cc(Nc3cccc(-c4ccccc4)c3)ncn2)cc1"
FALSE

Hello, is IC50 of the following molecule strictly smaller than 10 µM? "Cc1cccc(Nc2cc(Nc3cccc(C)c3)ncn2)c1"
FALSE

Hello, is IC50 of the following molecule strictly smaller than 10 µM? "O=C(Nc1ccccc1)Nc1ccc(Nc2cc(Nc3ccccc3)ncn2)cc1"
TRUE

Hello, is IC50 of the following molecule strictly smaller than 10 µM? "Oc1ccc(Nc2cc(Nc3ccc(O)cc3)ncn2)cc1"
FALSE

Hello, is IC50 of the following molecule strictly smaller than 10 µM? "Nc1ccc(Nc2ncncc2-c2ccccc2)cc1"
FALSE

Hello, is IC50 of the following molecule strictly smaller than 10 µM? "Cc1ccc(Nc2cc(Nc3ccccc3)ncn2)cc1"
FALSE

----------
Test system: BxPC3 cells
Assay: MTT cytotoxicity assay, BxPC3 pancreatic adenocarcinoma cells
Format: cell-based, human
Conditions: ratio between IC50 of sunitinib and IC50 of tested compound, BxPC3
value_kind: Potency relative to SU (BxPC3)

Please supply the value of reported Potency relative to SU (BxPC3) for the item "c1ccc(Nc2cc(Nc3cccc(-c4ccccc4)c3)ncn2)cc1"
0.28

Please supply the value of reported Potency relative to SU (BxPC3) for the item "O=C(Nc1ccccc1)Nc1ccc(Nc2cc(Nc3ccccc3)ncn2)cc1"
1.10

Please supply the value of reported Potency relative to SU (BxPC3) for the item "Brc1cccc(Nc2cc(Nc3cccc(Br)c3)ncn2)c1"
<0.10

Please supply the value of reported Potency relative to SU (BxPC3) for the item "Cc1cccc(Nc2cc(Nc3ccccc3)ncn2)c1"
0.79

Please supply the value of reported Potency relative to SU (BxPC3) for the item "O=C(Nc1ccccc1)Nc1ccc(Nc2ncncc2-c2ccccc2)cc1"
0.16

Please supply the value of reported Potency relative to SU (BxPC3) for the item "Oc1ccc(Nc2cc(Nc3ccc(O)cc3)ncn2)cc1"
<0.10

Please supply the value of reported Potency relative to SU (BxPC3) for the item "Nc1ccc(Nc2ncncc2-c2ccccc2)cc1"
0.18

Please supply the value of reported Potency relative to SU (BxPC3) for the item "Cc1ccc(Nc2cc(Nc3ccccc3)ncn2)cc1"
0.22

Please supply the value of reported Potency relative to SU (BxPC3) for the item "Oc1ccc(Nc2cc(Nc3ccccc3)ncn2)cc1"
0.78

Please supply the value of reported Potency relative to SU (BxPC3) for the item "Cc1cccc(Nc2cc(Nc3cccc(C)c3)ncn2)c1"
<0.10

----------
Target: KIT (Homo sapiens, UniProt P10721)
Construct: purchased DiscoverX (KinomeScan service)
Sequence (P10721 26-976): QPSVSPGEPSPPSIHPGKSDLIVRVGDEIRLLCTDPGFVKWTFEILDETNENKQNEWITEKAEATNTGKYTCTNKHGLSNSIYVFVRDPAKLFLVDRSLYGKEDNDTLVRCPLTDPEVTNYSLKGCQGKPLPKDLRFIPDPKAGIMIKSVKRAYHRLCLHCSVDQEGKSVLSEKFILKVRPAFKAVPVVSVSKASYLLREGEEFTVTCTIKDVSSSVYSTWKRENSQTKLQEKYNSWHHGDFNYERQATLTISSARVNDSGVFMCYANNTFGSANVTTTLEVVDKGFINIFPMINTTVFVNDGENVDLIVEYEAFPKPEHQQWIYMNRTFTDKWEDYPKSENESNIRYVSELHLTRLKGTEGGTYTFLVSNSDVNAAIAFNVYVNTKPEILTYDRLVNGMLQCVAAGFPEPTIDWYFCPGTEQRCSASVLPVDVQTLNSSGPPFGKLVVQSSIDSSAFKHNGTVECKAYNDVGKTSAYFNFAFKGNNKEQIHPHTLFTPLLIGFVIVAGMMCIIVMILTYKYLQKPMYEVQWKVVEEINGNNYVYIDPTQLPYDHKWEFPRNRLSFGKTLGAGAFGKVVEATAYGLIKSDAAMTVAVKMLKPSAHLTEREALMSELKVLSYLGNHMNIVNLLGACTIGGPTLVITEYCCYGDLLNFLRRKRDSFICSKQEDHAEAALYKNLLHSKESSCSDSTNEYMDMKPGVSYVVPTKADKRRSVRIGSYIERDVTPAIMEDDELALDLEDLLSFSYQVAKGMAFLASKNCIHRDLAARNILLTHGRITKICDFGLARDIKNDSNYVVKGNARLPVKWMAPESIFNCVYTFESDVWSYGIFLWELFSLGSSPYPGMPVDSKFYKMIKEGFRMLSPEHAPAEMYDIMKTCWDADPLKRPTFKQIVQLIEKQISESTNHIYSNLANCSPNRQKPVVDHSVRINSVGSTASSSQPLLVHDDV
Experiment: KinomeScan Kd determination, KIT
Format: binding
Details: KinomeScan
value_kind: Kd (nM)
// units = nM; emit number, no label

Please supply the value of reported Kd for the item O=C(Nc1ccccc1)Nc1ccc(Nc2cc(-c3ccccc3)ncn2)cc1 [Compound 19]
22

Please supply the value of reported Kd for the item O=C(CN1CCOCC1)Nc1cccc(-c2cc(Nc3ccc(NC(=O)Nc4ccccc4)cc3)ncn2)c1 [Compound 27]
10

----------
Assign melting point to each entry below.
// units = °C; emit number, no label

Please supply the value of reported melting point for the item "Oc1ccc(Nc2cc(Nc3ccccc3)ncn2)cc1"
286

Please supply the value of reported melting point for the item "Cc1cccc(Nc2cc(Nc3ccccc3)ncn2)c1"
254

Please supply the value of reported melting point for the item "Cc1cccc(Nc2cc(-c3ccccc3)ncn2)c1"
272

Please supply the value of reported melting point for the item "Oc1cccc(Nc2cc(Nc3ccccc3)ncn2)c1"
253

Please supply the value of reported melting point for the item "Brc1cccc(Nc2cc(Nc3cccc(Br)c3)ncn2)c1"
243

Please supply the value of reported melting point for the item "c1ccc(Nc2cc(Nc3cccc(-c4ccccc4)c3)ncn2)cc1"
267

Please supply the value of reported melting point for the item "Cc1ccc(Nc2cc(Nc3ccccc3)ncn2)cc1"
265

Please supply the value of reported melting point for the item "Oc1ccc(Nc2ncncc2-c2ccccc2)cc1"
118

----------
Biological target: FLT3 (Homo sapiens)
Construct: purchased DiscoverX (KinomeScan service)
Sequence (P36888 27-993): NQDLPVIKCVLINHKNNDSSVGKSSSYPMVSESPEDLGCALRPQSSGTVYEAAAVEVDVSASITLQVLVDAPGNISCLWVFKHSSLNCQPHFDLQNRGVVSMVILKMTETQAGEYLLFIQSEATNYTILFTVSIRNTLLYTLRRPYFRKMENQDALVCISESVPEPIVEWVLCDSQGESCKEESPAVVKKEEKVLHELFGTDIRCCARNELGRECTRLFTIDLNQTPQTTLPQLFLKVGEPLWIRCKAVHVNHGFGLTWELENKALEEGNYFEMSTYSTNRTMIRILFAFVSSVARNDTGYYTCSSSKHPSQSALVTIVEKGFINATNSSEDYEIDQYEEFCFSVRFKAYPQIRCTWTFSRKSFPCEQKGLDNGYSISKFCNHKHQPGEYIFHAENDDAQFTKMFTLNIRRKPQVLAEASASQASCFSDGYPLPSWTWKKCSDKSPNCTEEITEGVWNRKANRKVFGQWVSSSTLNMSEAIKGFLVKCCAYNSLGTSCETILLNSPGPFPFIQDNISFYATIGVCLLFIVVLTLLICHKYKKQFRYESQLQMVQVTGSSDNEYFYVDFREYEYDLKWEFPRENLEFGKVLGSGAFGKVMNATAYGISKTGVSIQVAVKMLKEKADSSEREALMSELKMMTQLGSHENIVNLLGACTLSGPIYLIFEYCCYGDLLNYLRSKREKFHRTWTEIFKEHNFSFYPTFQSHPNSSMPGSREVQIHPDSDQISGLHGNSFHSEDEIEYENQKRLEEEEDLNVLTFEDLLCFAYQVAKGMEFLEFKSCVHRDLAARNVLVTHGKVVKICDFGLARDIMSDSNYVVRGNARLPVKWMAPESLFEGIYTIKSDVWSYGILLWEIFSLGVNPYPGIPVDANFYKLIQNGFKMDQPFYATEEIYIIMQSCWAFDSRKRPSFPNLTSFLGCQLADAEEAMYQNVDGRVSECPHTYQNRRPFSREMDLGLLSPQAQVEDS
Assay: KinomeScan Kd determination, FLT3
Type: binding
Details: KinomeScan, bound stated; read-out: Kd against FLT3
pKd: −log10 of the molar value.
value_kind: pKd

Please supply the value of reported pKd for the item "O=C(CN1CCOCC1)Nc1cccc(-c2cc(Nc3ccc(NC(=O)Nc4ccccc4)cc3)ncn2)c1"
< 6.00
